Biological target: T1, Recombinant human OX40-His protein (human, UniProt P43489 29-214, limits assumed)
T1 construct: Recombinant antigen protein; also called recombinant human OX-40 protein; human OX-40 protein; not shown: His tag
T1 sequence (looked up): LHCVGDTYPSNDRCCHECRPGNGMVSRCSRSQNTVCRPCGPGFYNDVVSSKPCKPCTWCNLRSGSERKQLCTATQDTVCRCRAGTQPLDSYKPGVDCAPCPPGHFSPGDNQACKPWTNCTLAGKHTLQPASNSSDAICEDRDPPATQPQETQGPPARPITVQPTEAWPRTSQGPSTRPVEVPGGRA
Assay: kinetic ranking (RU, 1:1 binding model), prokaryotically expressed antibody product as ligand, OX40-His as analyte
koff values for the binders below.
The reply should contain only the number, in s⁻¹.

Inquiry: Entry under review: AH02913, prokaryotically expressed antibody product (back-mutation screening) (Fab, V domains shown) VH: QVQLVQSGPEVKKPGASVKVSCKASGYTFTDYSMHWVKQAPGQGLEWMGWISTETGEPTYADDFKGRVTITLDTSASTAYMELSSLRSEDTAVYFCARVRPWYLAVWGQGTLVTVSS VL: DIQMTQSPSSLSASVGDRVTITCRASQDISNYLNWYQQKPGKAVKLLIYYTSRLYSGVPSRFSGSGSGTDYTFTISSLQPEDIATYFCQQANTLPLTFGGGTKLEIK . Reported koff?
Reply text: 0.00425

Inquiry: Entry under review: AH02919, prokaryotically expressed antibody product (back-mutation screening) (Fab, V domains shown) VH: QVQLVQSGAEVKKPGASVKVSCKASGYTFTDYSMHWVKQAPGQGLEWMGWISTETGEPTYADDFKGRVTITRDTSASTAYLEISSLRSEDTAVYFCARVRPWYLAVWGQGTLVTVSS VL: DIQMTQSPSSLSASVGDRVTITCRASQDISNYLNWYQQKPGKAVKLLIYYTSRLYSGVPSRFSGSGSGTDYTLTISSLQPEDIATYYCQQANTLPLTFGGGTKLEIK . Reported koff?
Reply text: 0.00505

Inquiry: Entry under review: AH02922, prokaryotically expressed antibody product (back-mutation screening) (Fab, V domains shown) VH: QVQLVQSGAEVKKPGASVKISCKASGYTFTDYSMHWVRQAPGQRLEWMGWISTETGEPTYADDFKGRVTITRDTSASTAYMELSSLRSEDTAVYYCARVRPWYLVVWGQGTLVTVSS VL: DIQMTQSPSSLSASVGDRVTITCRASQDISNYLNWYQQKPGKAPKLLIYYTSRLYSGVPSRFSGSGSGTDYTLTISSLQPEDIATYYCQQANTLPLTFGGGTKLEIK . Reported koff?
Reply text: 0.000534

Just for reference, patent US20220119540A1 is where these values come from.
